Provide the recorded Preemergence herbicidal rating ORYSAT for the entries that follow.
tested on: ORYSAT (Rice, Tebonnet); experiment: Preemergence herbicidal evaluation; assay type: in vivo, Oryza sativa, (L.) Tebonnet; conditions: rate 0.1250 kg/ha; rated 4-5 weeks after treatment
Number only, no unit.

input: Fill blank: measured Preemergence herbicidal rating ORYSAT of the compound CC(C)OC(=O)CN1C(=O)CSC1=Nc1cc(-n2c(=O)cc(C(F)(F)F)n(C)c2=O)c(F)cc1Cl is ____.
output: 1.5

input: Fill blank: measured Preemergence herbicidal rating ORYSAT of the compound CN1C(=O)C(CC(=O)O)SC1=Nc1cc(-n2c(=O)cc(C(F)(F)F)n(C)c2=O)c(F)cc1Cl (stereo not drawn) is ____.
output: 7.0

input: Fill blank: measured Preemergence herbicidal rating ORYSAT of the compound CCOC(=O)CN1C(=O)C(CC(=O)O)SC1=Nc1cc(-n2c(=O)cc(C(F)(F)F)n(C)c2=O)c(Cl)cc1Cl (stereo not drawn) is ____.
output: 0.0

###

test system: GALAP (Galium); test: Preemergence herbicidal evaluation; format: in vivo, Galium aparine; settings: rate 0.0625 kg/ha; rated 4-5 weeks after treatment; rating scale 0-9
Provide the recorded Preemergence herbicidal rating GALAP for the entries that follow.

input: Fill blank: measured Preemergence herbicidal rating GALAP of the molecule CN(C)c1ccc(CN2C(=O)CSC2=Nc2cc(-n3c(=O)cc(C(F)(F)F)n(C)c3=O)c(F)cc2Cl)cc1 is ____.
output: 0.0

input: Fill blank: measured Preemergence herbicidal rating GALAP of the molecule Cn1c(C(F)(F)F)cc(=O)n(-c2cc(N=C3SCC(=O)N3Cc3ccc(C(F)(F)F)cc3)c(Cl)cc2F)c1=O is ____.
output: 0.0

input: Fill blank: measured Preemergence herbicidal rating GALAP of the molecule Cn1c(C(F)(F)F)cc(=O)n(-c2cc(N=C3SCC(=O)N3Cc3ccc(Cl)c(Cl)c3)c(Cl)cc2F)c1=O is ____.
output: 1.0

input: Fill blank: measured Preemergence herbicidal rating GALAP of the molecule Cn1c(C(F)(F)F)cc(=O)n(-c2cc(N=C3SCC(=O)N3Cc3cccnc3)c(Cl)cc2F)c1=O is ____.
output: 4.0

###

test system: ABUTH (Velvetleaf); assay: Postemergence herbicidal evaluation; assay type: in vivo, Abutilon theophrasti; details: postemergence, rate 0.0625 kg/ha
Provide the recorded Herbicidal rating ABUTH for the entries that follow.
Number only, no unit.

input: Give recorded Herbicidal rating ABUTH with ABUTH (Velvetleaf) for the following compound: CN1C(=O)C(CC(=O)NS(=O)(=O)c2ccccc2)SC1=Nc1cc(-n2c(=O)cc(C(F)(F)F)n(C)c2=O)c(F)cc1Cl (stereo not drawn) [Compound 102]
output: 9.0

input: Give recorded Herbicidal rating ABUTH with ABUTH (Velvetleaf) for the following compound: Cn1c(C(F)(F)F)cc(=O)n(-c2cc(N=C3SCC(=O)N3CC(=O)OCC3CCCCC3)c(Cl)cc2F)c1=O [Compound 123]
output: 9.0

input: Give recorded Herbicidal rating ABUTH with ABUTH (Velvetleaf) for the following compound: Cc1ccc(CN2C(=O)CSC2=Nc2cc(-n3c(=O)cc(C(F)(F)F)n(C)c3=O)c(F)cc2Cl)cc1Cl [Compound 149]
output: 9.0

###

Provide the recorded ZEAMX preemergence herbicidal rating for the entries that follow.
test system: ZEAMX (Corn, Field); test: Preemergence herbicidal evaluation; assay type: in vivo, Zea mays; details: rate 0.2500 kg/ha; rated 4-5 weeks after treatment
Number only, no unit.

input: Fill blank: measured ZEAMX preemergence herbicidal rating of the molecule CCOC(=O)CN1C(=O)CO/C1=N/c1cc(-n2c(=O)cc(C(F)(F)F)n(C)c2=O)c(F)cc1Cl [Compound 22] is ____.
output: 9.0

input: Fill blank: measured ZEAMX preemergence herbicidal rating of the molecule CCOC(=O)CN1C(=O)CSC1=Nc1cc(-n2c(=O)cc(C(F)(F)F)n(C)c2=O)c(F)cc1Cl [Compound 8] is ____.
output: 7.9

input: Fill blank: measured ZEAMX preemergence herbicidal rating of the molecule CCOC(=O)CN1C(=O)C(Cc2ccccc2)SC1=Nc1cc(-n2c(=O)cc(C(F)(F)F)n(C)c2=O)c(F)cc1Cl (stereo not drawn) [Compound 24] is ____.
output: 1.0
